- experimental-system: Neu5Ac(a2-3)Gal(b1-4)GlcNAc(b1-6)GalNAc
- measurement-description: glycan array binding signal (z-score within array); higher = stronger binding
- setup-conditions: glycan notation: IUPAC condensed, linker removed
Only a selection was taken, and the strongest signals are over-represented in it overall.
Measured glycan array binding signal (z-score) accompanies every entry in the list below.
reported-metric: glycan array binding signal (z-score)

[[record]]
binder = "Si Bti9 1b-V5-his (Solanum lycopersicum) (protein) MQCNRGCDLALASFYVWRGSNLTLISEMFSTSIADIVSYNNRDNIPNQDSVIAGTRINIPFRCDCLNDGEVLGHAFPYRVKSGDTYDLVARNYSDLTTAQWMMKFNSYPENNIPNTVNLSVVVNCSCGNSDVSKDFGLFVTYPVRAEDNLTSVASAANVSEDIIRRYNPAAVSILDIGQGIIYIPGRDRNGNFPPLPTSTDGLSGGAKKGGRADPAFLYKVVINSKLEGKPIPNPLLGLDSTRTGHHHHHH"
reported_metric = "glycan array binding signal (z-score)"
result_number = -0.254

[[record]]
binder = "PhypaEULS3 (Physcomitrella patens) (protein) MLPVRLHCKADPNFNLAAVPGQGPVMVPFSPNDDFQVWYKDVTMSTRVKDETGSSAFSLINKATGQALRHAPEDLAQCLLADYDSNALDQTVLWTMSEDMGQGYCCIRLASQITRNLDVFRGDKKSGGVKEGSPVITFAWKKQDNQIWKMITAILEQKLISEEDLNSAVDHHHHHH"
reported_metric = "glycan array binding signal (z-score)"
result_number = 2.29

